The variants listed here are annotated with their protein stability index.
B1: SNX8 (parent)
chain: RMVPALPPKRMLGADREFIEARRR

Variants of: B1
Test: protein stability index of a GFP-peptide fusion (GPS, HEK-293T) (PSI 1-6); higher = more stable;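 note: lentivirally expressed fusions sorted by FACS into six bins by GFP to DsRed ratio, PSI derived from sequencing read proportions per bin multiplied by bin number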
Details: c terminus: a fixed tail appended

variant designation: G13R
protein stability index: 4.06

variant designation: A14V
protein stability index: 3.02

variant designation: M2G
protein stability index: 3.83

variant designation: F18V
protein stability index: 4.12

variant designation: K9H
protein stability index: 4.53

variant designation: V3I
protein stability index: 2.38

variant designation: E17P
protein stability index: 4.09

variant designation: L12A
protein stability index: 4.53

variant designation: K9M
protein stability index: 3.81

variant designation: R22M
protein stability index: 3.16

variant designation: E17Q
protein stability index: 3.34

variant designation: R23H
protein stability index: 2.21

variant designation: P7D
protein stability index: 3.87

variant designation: M2H
protein stability index: 4.04

variant designation: A21D
protein stability index: 3.83

variant designation: V3L
protein stability index: 1.85

variant designation: A5C
protein stability index: 3.85

variant designation: F18K
protein stability index: 4.26

variant designation: V3E
protein stability index: 4.49

variant designation: P7M
protein stability index: 3.52

variant designation: M2L
protein stability index: 2.76

variant designation: K9E
protein stability index: 4.12

variant designation: A21G
protein stability index: 4.32

variant designation: P4S
protein stability index: 3.69

variant designation: L12S
protein stability index: 4.41

variant designation: F18Y
protein stability index: 4.07

variant designation: L12T
protein stability index: 4.43

variant designation: I19Q
protein stability index: 4.29

variant designation: E20V
protein stability index: 4.11

variant designation: E20Q
protein stability index: 4.01

variant designation: K9V
protein stability index: 4.61

variant designation: I19V
protein stability index: 4.09

variant designation: A5F
protein stability index: 3.24

variant designation: P4Q
protein stability index: 3.49

variant designation: F18C
protein stability index: 4.45

variant designation: A14K
protein stability index: 3.84

variant designation: F18R
protein stability index: 4.52

variant designation: M11H
protein stability index: 3.52

variant designation: A21L
protein stability index: 4.1

variant designation: A5T
protein stability index: 3.81

variant designation: E17D
protein stability index: 3.67

variant designation: R16G
protein stability index: 3.88

variant designation: A21M
protein stability index: 3.04

variant designation: P8R
protein stability index: 3.88

variant designation: M2C
protein stability index: 3.22

variant designation: A5E
protein stability index: 4.12

Reference for the values: the supplement of paper PMC10567573
